Could you please report measured viability, T/C for the items listed next?
# System: NCI-H23 complex spheroids with HUVEC/MSC, viability
# assay-notes: Anticancer human tumor NCI-H23 cell line growth inhibition [RAS];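 note: spheroids exposed to compound for 7 days; 100% = DMSO vehicle control viability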
# condition-parameters: second compound 1 µM; first compound 0.003 µM; stronger effect = lower value
Numbers only, in %.

# compound, endpoint-name, value-units, result-value
measured = [
    ("CCc1c2c(nc3ccc(O)cc13)-c1cc3c(c(=O)n1C2)COC(=O)[C@]3(O)CC + C#Cc1c(F)ccc2cc(O)cc(-c3ncc4c(N5CC6CCC(C5)N6)nc(OCC56CCCN5CC(F)C6)nc4c3F)c12", "viability, T/C", "%", 49.4),
]

Hey, quick one: what's viability, T/C for each of these?
1. CCc1c2c(nc3ccc(O)cc13)-c1cc3c(c(=O)n1C2)COC(=O)[C@]3(O)CC + C=CC(=O)N1CCN(c2nc(OCC3CCCN3C)nc3c(F)c(-c4nc(N)cc(C)c4C(F)(F)F)c(Cl)cc23)C(C)C1
2. CC1(C)CCC(Nc2ncc(C(F)(F)F)c(-c3c[nH]c4c(P(C)(C)=O)c(C#N)ccc34)n2)CN1 (centres undefined) + C=CC(=O)N1CCN(c2nc(OCC3CCCN3C)nc3c(F)c(-c4nc(N)cc(C)c4C(F)(F)F)c(Cl)cc23)C(C)C1
3. CC1(C)CCC(Nc2ncc(C(F)(F)F)c(-c3c[nH]c4c(P(C)(C)=O)c(C#N)ccc34)n2)CN1 (centres undefined) + C#Cc1c(F)ccc2cc(O)cc(-c3ncc4c(N5CC6CCC(C5)N6)nc(OCC56CCCN5CC(F)C6)nc4c3F)c12

1: 21.2; 2: 28.7; 3: 60.8

----------
# Test system: NCI-H23 complex spheroids with HUVEC/MSC, viability
# assay-notes: Anticancer human tumor NCI-H23 cell line growth inhibition [RAS];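 note: spheroids exposed to compound for 7 days; 100% = DMSO vehicle control viability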
# condition-parameters: second compound 0.3 µM; first compound 0.00316 µM; stronger effect = lower value
# Source text: RAS pathway inhibitors in Combinations in Complex Spheroids A high-throughput screen of multi-cell type tumor spheroids was designed to identify active combinations of RAS pathway inhibitors and targeted small molecules. Complex spheroids include a stromal component modeled by human endothelial cells (HUVEC) and fibroblasts modeled by human mesenchymal stem cells (MSCs). […] Compounds. […] If the clinical Cmax for an agent had not been determined, the highest concentration tested was 10 microM. […]
endpoint-name: viability, T/C (%)
Answers are plain numbers, in %.

# compound, value-units, result-value
records = [
    ("CCN1CCN(Cc2ccc(Nc3ncc(F)c(-c4cc(F)c5nc(C)n(C(C)C)c5c4)n3)nc2)CC1 + CCn1c(-c2cccnc2C(C)OC)c2c3cc(ccc31)N1CCOC(CC(NC(=O)C(C(C)C)N(C)C(=O)C3(F)CCN(C(=O)C#CC(C)(C)N(C)C)CC3)C(=O)N3CCCC(N3)C(=O)OCC(C)(C)C2)C1", "%", 22.2),
]

# evaluate next
viability, T/C for CC(C)n1nc(-c2ccc3oc(N)nc3c2)c2c(N)ncnc21 + CCn1c(-c2cc(N3CCN(C)CC3)cnc2C(C)OC)c2c3cc(ccc31)-c1csc(n1)CC(NC(=O)C1CC1C)C(=O)N1CCCC(N1)C(=O)OCC(C)(C)C2 ? 16.4

----------
# Test system: NCI-H23 complex spheroids with HUVEC/MSC, viability
# assay-notes: Anticancer human tumor NCI-H23 cell line growth inhibition [RAS];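 note: spheroids exposed to compound for 7 days; 100% = DMSO vehicle control viability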
# condition-parameters: second compound 0.316 µM; first compound 0.0316 µM; stronger effect = lower value
Exam item: assign satisfied to entries whose viability, T/C is below 40% and not satisfied to entries at or above 40%. Note that a value of exactly 40% receives not satisfied.

# compound, discrete-label
records = [
    ("CCN1CCN(Cc2ccc(Nc3ncc(F)c(-c4cc(F)c5nc(C)n(C(C)C)c5c4)n3)nc2)CC1 + C#Cc1c(F)ccc2cc(O)cc(-c3ncc4c(N5CC6CCC(C5)N6)nc(OCC56CCCN5CC(F)C6)nc4c3F)c12", "not satisfied"),
    ("CCC(CC)c1cc(NC2CCC(N)C2)n2nccc2n1 (configuration not stated) + C=CC(=O)N1CCN(c2nc(OCC3CCCN3C)nc3c(F)c(-c4nc(N)cc(C)c4C(F)(F)F)c(Cl)cc23)C(C)C1", "satisfied"),
    ("C=CC(=O)N1CCN(c2nc(OCC3CCCN3C)nc3c(F)c(-c4nc(N)cc(C)c4C(F)(F)F)c(Cl)cc23)C(C)C1 (configuration not stated) + C#Cc1c(F)ccc2cc(O)cc(-c3ncc4c(N5CC6CCC(C5)N6)nc(OCC56CCCN5CC(F)C6)nc4c3F)c12", "not satisfied"),
    ("CC(C)NCC(C(=O)N1CCN(c2ncnc3c2C(C)CC3O)CC1)c1ccc(Cl)cc1 (configuration not stated) + C#Cc1c(F)ccc2cc(O)cc(-c3ncc4c(N5CC6CCC(C5)N6)nc(OCC56CCCN5CC(F)C6)nc4c3F)c12", "not satisfied"),
    ("C=CC(=O)Nc1cc(Nc2nccc(-c3cn(C)c4ccccc34)n2)c(OC)cc1N(C)CCN(C)C + C=CC(=O)N1CCN(c2nc(OCC3CCCN3C)nc3c(F)c(-c4nc(N)cc(C)c4C(F)(F)F)c(Cl)cc23)C(C)C1", "satisfied"),
]

Take the compound CCN1CCN(Cc2ccc(Nc3ncc(F)c(-c4cc(F)c5nc(C)n(C(C)C)c5c4)n3)nc2)CC1 + C=CC(=O)N1CCN(c2nc(OCC3CCCN3C)nc3c(F)c(-c4nc(N)cc(C)c4C(F)(F)F)c(Cl)cc23)C(C)C1 and say whether its viability, T/C is less than 40%. satisfied

Consider CC(Nc1ccc2c(c1)OCCn1cc(N3C(=O)OCC3C(F)F)nc1-2)C(N)=O (configuration not stated) + C=CC(=O)N1CCN(c2nc(OCC3CCCN3C)nc3c(F)c(-c4nc(N)cc(C)c4C(F)(F)F)c(Cl)cc23)C(C)C1 . Does its viability, T/C lie strictly below 40%? satisfied

----------
# Test system: NCI-H23 complex spheroids with HUVEC/MSC, viability
# assay-notes: Anticancer human tumor NCI-H23 cell line growth inhibition [RAS];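 note: spheroids exposed to compound for 7 days; 100% = DMSO vehicle control viability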
# condition-parameters: second compound 0.003 µM; first compound 3.16 µM; stronger effect = lower value
Label satisfied when viability, T/C < 20%; otherwise not satisfied.

Before answering, review these 5 worked examples.
# compound, assay-target, discrete-label
rows = [
    ("Cc1nc(N2CCC3(CC2)COC(C)C3N)c(CO)nc1Sc1ccnc(N)c1Cl (stereo not drawn) + CCn1c(-c2cc(N3CCN(C)CC3)cnc2C(C)OC)c2c3cc(ccc31)-c1csc(n1)CC(NC(=O)C1CC1C)C(=O)N1CCCC(N1)C(=O)OCC(C)(C)C2", "NCI-H23 complex spheroids with HUVEC/MSC, viability", "satisfied"),
    ("NC1c2ccccc2OC12CCN(c1cnc3c(N4CCCc5ncccc54)n[nH]c3n1)CC2 (stereo not drawn) + CCn1c(-c2cc(N3CCN(C)CC3)cnc2C(C)OC)c2c3cc(ccc31)-c1csc(n1)CC(NC(=O)C1CC1C)C(=O)N1CCCC(N1)C(=O)OCC(C)(C)C2", "NCI-H23 complex spheroids with HUVEC/MSC, viability", "satisfied"),
    ("NC1c2ccccc2OC12CCN(c1cnc3c(N4CCCc5ncccc54)n[nH]c3n1)CC2 (stereo not drawn) + CCn1c(-c2cccnc2C(C)OC)c2c3cc(ccc31)N1CCOC(CC(NC(=O)C(C(C)C)N(C)C(=O)C3(F)CCN(C(=O)C#CC(C)(C)N(C)C)CC3)C(=O)N3CCCC(N3)C(=O)OCC(C)(C)C2)C1", "NCI-H23 complex spheroids with HUVEC/MSC, viability", "satisfied"),
    ("CC(=O)OC12COC1CC(O)C1(C)C(=O)C(O)C3=C(C)C(OC(=O)C(O)C(NC(=O)OC(C)(C)C)c4ccccc4)CC(O)(C(OC(=O)c4ccccc4)C21)C3(C)C (stereo not drawn) + CCn1c(-c2cc(N3CCN(C)CC3)cnc2C(C)OC)c2c3cc(ccc31)-c1csc(n1)CC(NC(=O)C1CC1C)C(=O)N1CCCC(N1)C(=O)OCC(C)(C)C2", "NCI-H23 complex spheroids with HUVEC/MSC, viability", "satisfied"),
    ("CC1(O)CCCC1n1c(=O)c(C(F)F)cc2cnc(NC3CCN(S(C)(=O)=O)CC3)nc21 (stereo not drawn) + CCn1c(-c2cc(N3CCN(C)CC3)cnc2C(C)OC)c2c3cc(ccc31)-c1csc(n1)CC(NC(=O)C1CC1C)C(=O)N1CCCC(N1)C(=O)OCC(C)(C)C2", "NCI-H23 complex spheroids with HUVEC/MSC, viability", "not satisfied"),
]

Hi there! Is viability, T/C for CC(C)NCC(C(=O)N1CCN(c2ncnc3c2C(C)CC3O)CC1)c1ccc(Cl)cc1 (stereo not drawn) + CCn1c(-c2cc(N3CCN(C)CC3)cnc2C(C)OC)c2c3cc(ccc31)-c1csc(n1)CC(NC(=O)C1CC1C)C(=O)N1CCCC(N1)C(=O)OCC(C)(C)C2 below 20%, do you know? not satisfied

Problem: For the compound CC(Nc1ccc2c(c1)OCCn1cc(N3C(=O)OCC3C(F)F)nc1-2)C(N)=O (stereo not drawn) + CCn1c(-c2cccnc2C(C)OC)c2c3cc(ccc31)N1CCOC(CC(NC(=O)C(C(C)C)N(C)C(=O)C3(F)CCN(C(=O)C#CC(C)(C)N(C)C)CC3)C(=O)N3CCCC(N3)C(=O)OCC(C)(C)C2)C1 , is viability, T/C under 20%? not satisfied
